Each item that follows carries a reported MIC.
System: Staphylococcus aureus
Test: Antimicrobial activity against epidemic methicillin-resistant Staphylococcus aureus 16 after 24 hrs by MTT assay
Type: functional
Details: Staphylococcus aureus, 16, 24 h

molecular-string: COC(=O)Nc1coc(C(=O)Nc2coc(C(=O)NCCc3c[nH]c4ccccc34)c2)c1
unit-of-measure: µg/mL
qualifier-sign: >
MIC: 256
//
molecular-string: COC(=O)Nc1coc(C(=O)Nc2coc(C(=O)NCCc3ccc(O)cc3)c2)c1
unit-of-measure: µg/mL
qualifier-sign: =
MIC: 8
//
molecular-string: CN(C)[C@@H]1C(O)=C(C(N)=O)C(=O)[C@@]2(O)C(O)=C3C(=O)c4c(O)cccc4[C@@](C)(O)[C@H]3C[C@@H]12
unit-of-measure: µg/mL
qualifier-sign: =
MIC: 0.5
//
molecular-string: Cn1cc(NC(=O)c2cc(NC(=O)CNC(=N)N)cn2C)cc1C(=O)NCCC(=N)N
unit-of-measure: µg/mL
qualifier-sign: =
MIC: 128

---

Tested on: Staphylococcus aureus
Test: Antimicrobial activity against Staphylococcus aureus […] after 24 hrs by MTT assay
Format: functional

compound: COC(=O)Nc1coc(C(=O)Nc2coc(C(=O)NCCc3c[nH]c4ccccc34)c2)c1 [PROXIMICIN C]
qualifier-sign: >
MIC, µg/mL: 256
--
compound: Cn1cc(NC(=O)c2cc(NC(=O)CNC(=N)N)cn2C)cc1C(=O)NCCC(=N)N [NETROPSIN]
qualifier-sign: =
MIC, µg/mL: 64
--
compound: CN(C)[C@@H]1C(O)=C(C(N)=O)C(=O)[C@@]2(O)C(O)=C3C(=O)c4c(O)cccc4[C@@](C)(O)[C@H]3C[C@@H]12 [TETRACYCLINE]
qualifier-sign: =
MIC, µg/mL: 0.5
--
compound: COC(=O)Nc1coc(C(=O)Nc2coc(C(=O)NCCc3ccc(O)cc3)c2)c1 [PROXIMICIN B]
qualifier-sign: =
MIC, µg/mL: 8

The origin of these recorded values is ChEMBL document CHEMBL1955795.
